All figures here come from the supplement of paper PMC9170038.

System: MS2 coat protein
Test: apparent KD of MS2 coat protein; designed switch direction (-1 OFF switch, 1 ON switch): -1; higher = weaker reporter binding
Conditions: Eterna round: R95; input ligand: FMN 200 uM
just bin them by apparent KD of MS2 coat protein: low: < 30 nM; intermediate: ≥ 30 nM and < 100 nM; high: ≥ 100 nM

{"Construct sequence": "GGAUGUUAGGAGGAUAUCUGACGUCGAAAAGAAGGAGAAGGCCUGACAUGAGGAUCACCCAUGUGGUCAAAAGA [Eresinbi] (puzzle: Exclusion 6)", "Class assignment": "high"}
{"Construct sequence": "ACACAACAUGAGGAUCACCCAUGUCAGGAUAUGCAGAAGAAGAAGAAGAGAAGAGAGAGCAGAAGGGACAACAC [Ex 1 M3] (puzzle: Exclusion 1)", "Class assignment": "intermediate"}
{"Construct sequence": "UUUAAUUUUUUUUUUUUACAAGCUUUUUGCUCGUCUUAUACAUGAGGAUCACCCAUGUAGGUGAGAAAUGAAUUAUC [JMF 94] (puzzle: Sensor v3, turn-off variant 2)", "Class assignment": "low"}
{"Construct sequence": "GGUGCUGGCGCGUCGGUGUUGGUGCAAUAAGCUUGUGAAACAUGAGGAUCACCCAUGUCCUCGUGGGCUCGUCUUGU [salish99_TOv2_r2_090] (puzzle: Sensor v3, turn-off variant 2)", "Class assignment": "high"}
{"Construct sequence": "AGUACUAACACGAUAGUGUUAGUACAAUAAGCUUGUGUUACAUGAGGAUCACCCAUGUCCUCAUAAGCUCGUCUUAU [Mat - Sensor v3 - Turn-off var 2 - D54] (puzzle: Sensor v3, turn-off variant 2)", "Class assignment": "high"}
{"Construct sequence": "AAAGGUGAGUAGGAUAUCCGCGCACGAAUAAAAGGAGAAGGACUUACAUGAGGAUCACCCAUGUAAGGUGGUAA [Ationbi] (puzzle: Exclusion 6)", "Class assignment": "low"}
{"Construct sequence": "GUAAAGGUAGGAUAUACGAAGAAAAAGGGUAGAAGAAAAACACAUGAGGAUCACCCAUGUAGAAGGACCAAAUG [Mat - Exclusion 2 - Mod of my Tesla design - D3] (puzzle: Exclusion 2)", "Class assignment": "intermediate"}
{"Construct sequence": "AUUUUAAUAUAGGAUAUCGAAUUUAUUAUUUAACGAGAAGGAUGAACAUGAGGAUCACCCAUGUGGUAUCAUGG [JL-ex6-3.03] (puzzle: Exclusion 6)", "Class assignment": "high"}
{"Construct sequence": "UCAAGUUUUUUGUUUUUUAACAUGAGGAUCACCCAUGUAUUUUUAUAGUAUGUGUGAAUAAGAUCUCGUGGUCUUAU [JR_SV3TOV1_Sub099] (puzzle: Sensor v3, turn-off variant 1)", "Class assignment": "intermediate"}
{"Construct sequence": "AUAGAGUCAGGAUAUUGCGCAGUGGACAUGAGGAUCACCCAUGUGAACUUCGUACCGGGCCAAGAAGGGACGGAAA [Onedra] (puzzle: Exclusion 5)", "Class assignment": "intermediate"}
